System: PRP4;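 further: KINOMEscan scanMAX binding as percent activity remaining versus control; lower means stronger binding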
Construct: gene PRPF4B
Conditions: Compound Concentration (nM):1000
parameter: Percent Control (%)
// return numeric value only (unit: %, not printed)

Sample records with Percent Control:
{"columns": ["compound", "Percent Control, %"],
 "data": [
  ["C[C@@H](Oc1cc(-n2cnc3ccc(OC4CCN(C)CC4)cc32)sc1C(N)=O)c1ccccc1Cl [GSK579289A]", 100],
  ["Cl.O=C(O[C@H]1CN[C@H](C#Cc2cc3ncnc(Nc4ccc5c(cnn5Cc5ccccc5)c4)c3s2)C1)N1CCOCC1 [GSK200398A]", 100],
  ["CN(C)CCNC(=O)Nc1ccc(N(C)c2ccnc(Nc3ccc(CS(C)(=O)=O)cc3)n2)cc1.Cl [GW830900A]", 100],
  ["O=C(Nc1n[nH]c2nc(-c3ccc(O)cc3)c(Br)cc12)C1CC1", 100],
  ["COc1cc(N2CCN(C(C)C)CC2)ccc1Nc1nc(Nc2ccc(F)cc2C(=O)NC[C@@H](O)CO)c2cc[nH]c2n1 [GSK1392956A]", 100]
]}

Return reported Percent Control; argument: Nc1ncnc2occ(-c3ccc(NC(=O)Nc4cc(C(F)(F)F)ccc4F)cc3)c12 [GW770249X]
100

Return reported Percent Control; argument: COc1cc2ncnc(Nc3ccc4c(cnn4Cc4ccccc4)c3)c2cc1OC.Cl [GW282449A]
100

Return reported Percent Control; argument: NS(=O)(=O)c1ccc(N/N=C2\C(=O)Nc3ccc(Cl)cc32)cc1 [GW280670X]
100
